molecular target: h-GABA-A α5β3γ2 (Homo sapiens, UniProt P18507+P31644); experiment: [3H]flumazenil competition binding assay, membranes of HEK293 cells expressing GABAA receptors; details: displacement of [3H]-Flumazenil 0.5 nM, HEK293 cells expressing human receptors, mean of two determinations; Table 1
measurement_kind: log10(Ki) (log10 of the value in nM)
Plainly stated, the numbers are log10 of Ki given in nM.

The examples below pair each entry with its known result.
[[record]]
compound = "Cc1ccc(-c2noc(C)c2Cn2ncc(N3CC4(CCCCC4)C3)cc2=O)cn1"
measurement_kind = "log10(Ki)"
observed_measurement = 1.24

[[record]]
compound = "Cc1ccc(-c2noc(C)c2Cn2ncc(N3CC4(CC(C)CCO4)C3)cc2=O)nn1 (single isomer, unassigned) [Example 317]"
measurement_kind = "log10(Ki)"
observed_measurement = 0.69

[[record]]
compound = "CCn1cc(-c2cnn(Cc3c(-c4ccc(C)nc4)noc3C)c(=O)c2)cn1"
measurement_kind = "log10(Ki)"
observed_measurement = 1.33


Query block: Give me measured log10(Ki), please, for this compound: Cc1ccc(-c2noc(C)c2Cn2ncc(N3CC4(CNC4)C3)cc2=O)cn1
Result block: 1.48

Query block: For the compound CCn1cc(-c2cnn(Cc3c(-c4ccc(Cl)nc4)noc3C)c(=O)c2)cn1 , give its reported log10(Ki).
Result block: 1.49

Query block: Look up and state reported log10(Ki) for Cc1ccc(-c2noc(C)c2Cn2ncc(N3CCC3)cc2=O)cn1
Result block: 0.93

Query block: Please supply the value of reported log10(Ki) for the item Cc1ccc(-c2noc(C)c2Cn2ncc(N3CCC4(CC3)COC4)cc2=O)cn1
Result block: 1.18

Query block: Retrieve log10(Ki) measured for COc1cc(-c2cnn(Cc3c(-c4cnc(C)c(F)c4)noc3C)c(=O)c2)ccn1 and print it.
Result block: 1.17

Query block: Tell me its log10(Ki) given CO[C@H]1CN(c2cnn(Cc3c(-c4ccc(Cl)nc4)noc3C)c(=O)c2)[C@H]1C as the entry.
Result block: 0.52

Query block: Let me know recorded log10(Ki) for COC1CN(c2cnn(Cc3c(-c4ccc(Cl)cc4)noc3C)c(=O)c2)C1 , thanks.
Result block: 0.87

Query block: Answer with the recorded log10(Ki) of Cc1ccc(-c2noc(C)c2Cn2ncc(N3CC(Oc4ccccn4)C3)cc2=O)cn1 only.
Result block: 1.08

Query block: State its log10(Ki): COC1(C)CCN(c2cnn(Cc3c(-c4ccc(Cl)nc4)noc3C)c(=O)c2)CC1
Result block: 1.55

Query block: Look up and state reported log10(Ki) for CCOC1CN(c2cnn(Cc3c(-c4ccc(Cl)cc4)noc3C)c(=O)c2)C1
Result block: 0.89

Query block: Quickly give me recorded log10(Ki) for Cc1ccc(-c2nocc2Cn2ncc(N3CCO[C@H](C)C3)cc2=O)cn1
Result block: 1.41

Query block: Determine its reported log10(Ki): Cc1ccc(-c2noc(C)c2Cn2ncc(-c3ccc(OC(C)C)cc3)cc2=O)cn1
Result block: 1.02

Query block: Please give the documented log10(Ki) of CO[C@H]1CN(c2cnn(Cc3c(-c4ccc(C)nc4)noc3C)c(=O)c2)[C@H]1C
Result block: 0.30

Query block: Give me measured log10(Ki), please, for this compound: CCOc1ncc(-c2cnn(Cc3c(-c4ccc(C)nc4)noc3C)c(=O)c2)cc1C
Result block: 1.59

Query block: Check the records and state log10(Ki) for Cc1ccc(-c2nocc2Cn2ncc(N3C[C@@H](C)O[C@@H](C)C3)cc2=O)cn1
Result block: 1.10

Query block: Please look at this compound and report its log10(Ki): Cc1onc(-c2ccc(C(F)(F)F)nn2)c1Cn1ncc(N2CC3(CC[C@@H](F)CO3)C2)cc1=O
Result block: 0.77

Query block: Output measured log10(Ki) for this item: COc1cc(-c2cnn(Cc3c(-c4ncc(C(F)(F)F)cn4)noc3C)c(=O)c2)ccn1
Result block: 0.58

Query block: Tell us which log10(Ki) value is on record for O=C(C1CC1)N1CCN(c2cnn(Cc3c(-c4ccc(Cl)cn4)noc3C3CC3)c(=O)c2)CC1
Result block: 1.10

Query block: Annotate the compound Cc1ccc(-c2noc(C)c2Cn2ncc(N3CC(OC(C)(C)C)C3)cc2=O)nn1 with its measured log10(Ki).
Result block: 0.64

Query block: Kindly indicate its recorded log10(Ki). Item: Cc1ncc(-c2noc(C)c2Cn2ncc(N3C[C@@H](C)O[C@@H](C)C3)cc2=O)cc1F
Result block: 0.30

Query block: Could you please provide reported log10(Ki) for Cc1ccc(-c2noc(C)c2Cn2ncc(N3CC4(CCC(F)CO4)C3)cc2=O)nn1 (single isomer, unassigned) [Example 319] ? Thanks!
Result block: 0.00

* * *

molecular target: h-GABA-A α5β3γ2 (Homo sapiens, UniProt P18507+P31644); assay: Two-electrode voltage clamp electrophysiology in Xenopus laevis oocytes expressing GABAA receptors, modulation of GABA EC20 current; assay type: cell-based; parameters: host or cells: Xenopus laevis oocytes micro-injected with RNA transcripts of the subunits; settings: % modulation of GABA EC20 = 100*(Fold increase-1); Table 1
measurement_kind: Efficacy (GABA) % (%)
Your answer is read as %, so omit the unit and give the number.

Use these answered entries as a reference point.
[[record]]
compound = "CCOC1CN(c2cnn(Cc3c(-c4ccc(C)nn4)noc3CF)c(=O)c2)C1"
observed_measurement = 87

[[record]]
compound = "Cc1onc(-c2ccc(Cl)nc2)c1Cn1ncc(N2CC3(CC(F)CCO3)C2)cc1=O (single isomer, unassigned)"
observed_measurement = 84

[[record]]
compound = "Cc1ncc(-c2noc(C)c2Cn2ncc(N3CC4(CCCO4)C3)cc2=O)cc1F"
observed_measurement = 110

[[record]]
compound = "COc1cc(-c2cnn(Cc3c(-c4ccc(Cl)nc4)noc3C)c(=O)c2)ccn1"
observed_measurement = 74

[[record]]
compound = "Cc1ccc(-c2noc(C)c2Cn2ncc(N3CCN(CC(F)(F)F)CC3)cc2=O)cn1"
observed_measurement = 145


Query block: Give the value of Efficacy (GABA) % reported for the following: CCO[C@@H]1CN(c2cnn(Cc3c(-c4ccc(Cl)nc4)noc3C)c(=O)c2)[C@@H]1C
Result block: 117

Query block: Let me know recorded Efficacy (GABA) % for Cc1ccc(-c2noc(C)c2Cn2ncc(N3CCC4(CCCCO4)CC3)cc2=O)nn1 , thanks.
Result block: 149

* * *

target: h-GABA-A α5β3γ2 (Homo sapiens, UniProt P18507+P31644); test: Two-electrode voltage clamp electrophysiology in Xenopus laevis oocytes expressing GABAA receptors, modulation of GABA EC20 current; format: cell-based; design: host or cells: Xenopus laevis oocytes micro-injected with RNA transcripts of the subunits; settings: test compound at approx. 30 fold its Ki, GABA at EC20; Table 1
Quick rule: Fold increase h-GABA-A α5β3γ2 oocyte of at least 2 means satisfied, below that means not satisfied.

Illustrative cases are given below, each with its answer.
[[record]]
compound = "CC(=O)N(C)[C@@H]1CCN(c2cnn(Cc3c(-c4ccc(C)nc4)noc3C)c(=O)c2)C1 [Example 2]"
target_or_system = "h-GABA-A α5β3γ2 (Homo sapiens, UniProt P18507+P31644)"
answer_label = "satisfied"

[[record]]
compound = "COc1ccc(-c2cnn(Cc3c(-c4ccc(C)nc4)noc3C)c(=O)c2)cn1 [Example 81]"
target_or_system = "h-GABA-A α5β3γ2 (Homo sapiens, UniProt P18507+P31644)"
answer_label = "satisfied"

[[record]]
compound = "CO[C@H]1COC2(C1)CN(c1cnn(Cc3c(-c4ccc(C(F)(F)F)nc4)noc3C)c(=O)c1)C2 [Example 237]"
target_or_system = "h-GABA-A α5β3γ2 (Homo sapiens, UniProt P18507+P31644)"
answer_label = "satisfied"


Query block: # bool: Fold increase h-GABA-A α5β3γ2 oocyte of Cc1onc(-c2ccc(Cl)nn2)c1Cn1ncc(N2CC(OC(C)(C)C)C2)cc1=O [Example 271] >= 2
Result block: not satisfied

Query block: Check the entry Cc1ccc(-c2noc(C)c2Cn2ncc(N3CC(Oc4ccccn4)C3)cc2=O)cn1 [Example 124] : does Fold increase h-GABA-A α5β3γ2 oocyte equal or exceed 2?
Result block: satisfied

Query block: Exam item: decide whether the reported Fold increase h-GABA-A α5β3γ2 oocyte for Cc1ccc(-c2noc(C)c2Cn2ncc(-c3ccnc(OC4CCOC4)c3)cc2=O)cn1 (centres unmarked) [Example 177] is at least 2.
Result block: satisfied

Query block: # check: Fold increase h-GABA-A α5β3γ2 oocyte of Cc1onc(-c2ccc(Cl)nc2)c1Cn1ncc(N2CCN(c3ccnnc3)CC2)cc1=O [Example 263] is greater than or equal to 2
Result block: satisfied

Query block: Please check the record Cc1ccc(-c2noc(C)c2Cn2ncc(-c3ccc(C(F)(F)F)cc3)cc2=O)cn1 [Example 83] and state if its Fold increase h-GABA-A α5β3γ2 oocyte is at or above 2.
Result block: not satisfied
